target: T1, recombinant human IL-6 (human, UniProt P05231 30-212); test: SPR Biacore, purified Ab on Protein A chip, IL-6 analyte, 37 C
T1 construct: Bought protein
T1 sequence (P05231 30-212 limits assumed): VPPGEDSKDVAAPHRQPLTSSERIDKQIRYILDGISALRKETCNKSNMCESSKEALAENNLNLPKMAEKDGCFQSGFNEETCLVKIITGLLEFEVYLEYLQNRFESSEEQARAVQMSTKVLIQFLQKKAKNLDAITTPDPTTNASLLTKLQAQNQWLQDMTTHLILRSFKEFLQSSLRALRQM
Metric: Kd (nM)
Give the value, in units of nM, as a plain number.

Worked set:
anti-IL-6 antibody, heavy chain variant I (M34I, G66D, I108V) / light chain variant III (M32L, M50D, N52S, M88Q) (antibody, human IgG1, V domains shown, also called M34I, G66D, I108V/ M32L, M50D, N52S, M88Q; I/III) VH: EVQLVESGGGLVQPGGSLRLSCAASGFTFSPFAISWVRQAPGKGLEWVAKISPGGSWTYYSDTVTDRFTFSLDTSKSTAYLQMNSLRAEDTAVYYCARQLWGYYALDVWGQGTLVTVSS VL: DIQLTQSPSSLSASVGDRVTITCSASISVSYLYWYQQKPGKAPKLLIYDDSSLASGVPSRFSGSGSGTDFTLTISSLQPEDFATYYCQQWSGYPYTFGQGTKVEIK = 0.625
anti-IL-6 antibody, light chain M32V (heavy chain WT) (antibody, V domains shown, See note of m2; also called WT / M32V) VH: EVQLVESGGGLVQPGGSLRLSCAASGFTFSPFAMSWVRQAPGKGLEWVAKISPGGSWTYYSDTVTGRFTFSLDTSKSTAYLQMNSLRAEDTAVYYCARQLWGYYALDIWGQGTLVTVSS VL: DIQLTQSPSSLSASVGDRVTITCSASISVSYVYWYQQKPGKAPKLLIYDMSNLASGVPSRFSGSGSGTDFTLTISSLQPEDFATYYCMQWSGYPYTFGQGTKVEIK = 0.429

Now consider the entry below.
Name the reported Kd value associated with the binder anti-IL-6 antibody, heavy chain variant II (M34W, G66D, I108V) / light chain variant III (M32L, M50D, N52S, M88Q) (antibody, V domains shown, See note of m39; also called M34W, G66D, I108V/ M32L, M50D, N52S, M88Q; II/III) VH: EVQLVESGGGLVQPGGSLRLSCAASGFTFSPFAWSWVRQAPGKGLEWVAKISPGGSWTYYSDTVTDRFTFSLDTSKSTAYLQMNSLRAEDTAVYYCARQLWGYYALDVWGQGTLVTVSS VL: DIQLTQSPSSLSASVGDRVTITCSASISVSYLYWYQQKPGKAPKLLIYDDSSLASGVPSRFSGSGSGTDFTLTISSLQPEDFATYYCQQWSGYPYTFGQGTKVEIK
0.507

Data origin: patent US20240209076A1
